Numbers sourced from PubChem BioAssay.

PROTOCOL_SUMMARY: drug combination growth inhibition, ovarian cancer – cell-based, oncology-focused library, rucaparib conditional, profiling panel (AID 1508598)
CONDITION_CONTEXT: patient-derived ovarian cancer cells, CellTiter-Glo viability, 144 h; at 0.0195 µM; OCI-P5x cells; with rucaparib 20 µM; 100% = cells with rucaparib alone
Calls of active or inactive are those of the source.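 How the source made its calls: active means normalized viability below 100% at a tested concentration; inactive means the rest.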
Outcomes: yes (1) (active), no (0) (inactive)

compound=Cc1ccc2nc(NC(=O)CSc3nc4c(c(=O)n3-c3ccccc3)SCC4)sc2c1 qualitative_label="no (0)"
compound=Cn1cncc1[C@@](N)(c1ccc(Cl)cc1)c1ccc2c(c1)c(-c1cccc(Cl)c1)cc(=O)n2C qualitative_label="yes (1)"
compound=CNC(=O)c1cc(Oc2ccc(NC(=O)Nc3ccc(Cl)c(C(F)(F)F)c3)c(F)c2)ccn1 qualitative_label="no (0)"
compound=O=C(Nc1cn[nH]c1-c1nc2ccc(CN3CCOCC3)cc2[nH]1)NC1CC1 qualitative_label="no (0)"
compound="O=C(O)CCC1CCC(c2cc(F)ccc2F)(S(=O)(=O)c2ccc(Cl)cc2)CC1 (centres undefined)" qualitative_label="no (0)"
compound="CC1(O)CC(c2nc(-c3ccc4ccc(-c5ccccc5)nc4c3)c3c(N)nccn23)C1 (centres undefined)" qualitative_label="no (0)"
compound=CCC[C@H](NC(=O)/C(C#N)=C/c1cccc(Br)n1)c1ccccc1 qualitative_label="no (0)"
compound=CC(C)Oc1ccc(C(=O)N[C@H](CNC(=O)CN(C)C)Cc2ccc(-c3cn4cccc([C@H](C)O)c4n3)cc2)cc1Cl qualitative_label="yes (1)"
compound=Cc1cn(-c2cc(NC(=O)c3ccc(C)c(Nc4nccc(-c5cccnc5)n4)c3)cc(C(F)(F)F)c2)cn1 qualitative_label="no (0)"
